# assayed.target: UniProt Q9H1C0
# Sequence (Q9H1C0 whole entry): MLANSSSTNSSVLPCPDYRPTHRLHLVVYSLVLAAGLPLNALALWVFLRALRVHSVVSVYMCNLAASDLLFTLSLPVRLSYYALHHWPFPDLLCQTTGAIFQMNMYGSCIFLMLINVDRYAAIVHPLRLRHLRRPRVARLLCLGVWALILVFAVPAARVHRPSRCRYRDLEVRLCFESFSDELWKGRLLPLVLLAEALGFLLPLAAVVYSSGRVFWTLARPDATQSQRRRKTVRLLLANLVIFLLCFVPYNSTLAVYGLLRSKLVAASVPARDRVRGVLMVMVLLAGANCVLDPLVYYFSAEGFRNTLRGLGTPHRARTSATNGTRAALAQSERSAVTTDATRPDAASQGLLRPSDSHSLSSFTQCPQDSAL
# assay.comment: Ca2+ mobilization assay, LPA5 expressed in RH7777 cells
# cond: read-out: LPA5 antagonist IC50; Ca2+ mobilization, RH7777 cells

smiles.entry	IC50 [µM]
CCCCCCCCCCCCCCCC(=O)OC[C@@H](O)C[C@H](Br)P(=O)(O)O	0.977

###

# assayed.target: human LPA2 (Homo sapiens, UniProt Q9HBW0)
# Sequence (Q9HBW0 whole entry): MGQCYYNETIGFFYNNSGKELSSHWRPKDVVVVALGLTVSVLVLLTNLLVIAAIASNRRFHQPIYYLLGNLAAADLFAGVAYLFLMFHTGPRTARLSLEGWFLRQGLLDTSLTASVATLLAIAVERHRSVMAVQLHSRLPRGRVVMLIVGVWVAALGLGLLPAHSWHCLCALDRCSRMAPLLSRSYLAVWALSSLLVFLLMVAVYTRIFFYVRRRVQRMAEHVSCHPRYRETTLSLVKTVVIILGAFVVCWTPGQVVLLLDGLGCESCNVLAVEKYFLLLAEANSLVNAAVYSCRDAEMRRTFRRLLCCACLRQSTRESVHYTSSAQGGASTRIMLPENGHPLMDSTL
# assay.comment: Ca2+ mobilization assay, LPA2 expressed in RH7777 cells
# cond: read-out: LPA2 antagonist IC50
Below is a list of entries, each paired with its recorded IC50 value.

compound	IC50 [nM]
CCCCCCCCCCCCCCCC(=O)OC[C@@H](O)C[C@H](Br)P(=O)(O)O	275
CCCCCCCCCCCCCCCC(=O)OC[C@@H](O)C[C@@H](Br)P(=O)(O)O	288
CCCCCCCCCCCCCCCC(=O)OCC(O)CC(Br)P(=O)(O)O (stereo not drawn) [compound 1, palmitoyl α-bromomethylenephosphonate]	468

Values were extracted from paper PMC3446773.
